Kindly supply the reported apparent Kd values for the records listed here.
system: MS2 coat protein; test: apparent Kd, MS2 coat protein; higher = weaker binding; RNA-MaP array; FMN 200 µM where present; settings: designed as: OFF switch for flavin mononucleotide; no ligand
Give the figure together with its unit, number first.

Example results:
# residue-string, apparent Kd
measured = [
    ("GGAUCAUGAGGAUAUCGAGGUUAGUACAUGAGGAUCACCCAUGUUAUCCAGGUCUCGUUUCGAGAAGGCAUGAUCC", "21.5 nM"),
    ("AUCAGCACGUGAGGAUAUGCGUCACUGCGUCAGCAGUGCGGUAAGAUCACAUGAGGAUCACCCAUGUAGAAGGCACGAGCUGAU", "21.4 nM"),
    ("UCCUUGUCCUGAGGAUAUCCGCGGUUCCCAAAAGGAGAAGGCAGGACAUGAGGAUCACCCAUGUACCCAGAGAACGUGCAGAGU", "19.2 nM"),
    ("CUUUUGUGAGGAUAUCAGUAGUAGAACAAUAGUACUACUACUGAGAAGGCACAUGAGGAUCACCCAUGUUCCUC", "62.5 nM"),
    ("GGAUAGGACAGAGGAUAUACAGAUAGGAUCUACUAUCAAACAGUCCUUACAUGAGGAUCACCCAUGUAGAAGGCUGUCCUAUCG", "19.4 nM"),
]

Batch of 2 sequences: report apparent Kd for each.
1. UGUGUUUUUGUGAGGAUAUACUGUUUGUUUUGUUUGUAGAAGGUACAUGAGGAUCACCCAUGUUGUGUUUGGUU
2. AAAAAGUGAGGAUAUACGGUGUGGAGUAGACACAACCAGACGUAGAAGGCACAUGAGGAUCACCCAUGUCCAAA

Output line:
37.5 nM
24.1 nM

* * *

system: MS2 coat protein; experiment: apparent Kd, MS2 coat protein; higher = weaker binding; RNA-MaP array; details: ligand present: flavin mononucleotide; designed as: OFF switch for flavin mononucleotide
Mark 0.0 for apparent Kd values under 20 nM, and 1.0 for everything at or above.

# residue-string, class-label
records = [
    ("GAUGGCCUAGGAUAUACGCGUUGGUUGGCUCGUCACGAUACACAUGAGGAUCACCCAUGUAGAAGGAGGAGAGU", 0.0),
]

Input line: Dear colleague, could you confirm whether `UAAGCACAUGAGGAUCACCCAUGUAAGGAUAUCCGAUCAUGCAAUCCGGAGAUCACAAGGAGAAGGUACAUGCA` has apparent Kd at or above 20 nM?
Output line: 1.0

Input line: Please give the result for `UCUGGUUGAGGAUAUACAUGAGGAUCACCCAUGUCACCUAGCAAAGUAGAGAGUAAGUGUAGAAGGCAACCUUU` too.
Output line: 0.0

* * *

tested on: MS2 coat protein; test: apparent Kd, MS2 coat protein; higher = weaker binding; RNA-MaP array; details: designed as: OFF switch for flavin mononucleotide; no ligand
Recorded apparent Kd determines the group label, using low (below 10 nM), moderate (10 nM to below 20 nM), high (20 nM or more)

# residue-string, class-label
rows = [
    ("CGGCGGGACUCACAUGAGGAUCACCCAUGUUUAAAGGGUCAAAAGGAUAUGAAAACAGCAAGUAAUCAGAAGGUUUACCUAGUG", "moderate"),
    ("UUACAACAUGAGGAUCACCCAUGUUAGGAUAUACGAGGGACAGCGCGGUUAUAUCCCUGUAGAAGGAACACGGG", "high"),
    ("CAAGUCGGCAAGGAUAUGAAACGUAUUACAGAUUCAGAAGGUGCUACAUGAGGAUCACCCAUGUGGUCAAUACC", "low"),
    ("UAGAUCCCAGUCAGGAUAUCCAGGGAGAAUAGGAGGGAGAAGGGACAUGAGGAUCACCCAUGUAUGCGACUACC", "low"),
    ("GCGGAACAUGAGGAUCACCCAUGUCAGGAUAUACGCACGGAGUAGGAGGAGGCCUAUGGUAGAAGGGACAGUGA", "moderate"),
]

Input line: Tag the class for `AAAAUUCUAGUGAGGAUAUGGUACGUUGUAGUAAGCCAGAAGGCACAUGAGGAUCACCCAUGUAUAAUGGACGA`
Output line: high

Input line: Another: `GAUGGCCUAGGAUAUACGCGUUGGUUGGCUCGUCACGAUACACAUGAGGAUCACCCAUGUAGAAGGAGGAGAGU`
Output line: moderate

Input line: And what about the sequence `UCCCAGCAAGGAUAUACAUGAAAAGGUAAAGAAGAAAAGAAACAUGAGGAUCACCCAUGUAGAAGGUGCAAGAG` ?
Output line: moderate

Input line: Also need `GGCCUUUCGGUAAGGAUAUCCCUCCGCGCAGAUUGGGAGAAGGUACAUGAGGAUCACCCAUGUUUUAUGGCUGC` , thanks.
Output line: low

Input line: Moving on to the next sequence: `GCAUUAGGGUAAGGAUAUUGAAUUAAACAUGGCAAAGUAAUUUUUGACAUGAGGAUCACCCAUGUCAAGAAGGUACUCAUUCAU`
Output line: low

* * *

Kindly supply the reported apparent Kd values for the records listed here.
test system: MS2 coat protein; experiment: apparent Kd, MS2 coat protein; higher = weaker binding; RNA-MaP array; tryptophan 2.4 mM where present; conditions: ligand present: tryptophan; designed as: ON switch for tryptophan

# residue-string, measured-on, value-kind, assay-value
records = [
    ("GCUAGGUCAUCGGCCGCCACUAACGAUGGCUCCAACAUGAGGAUCACCCAUGUGCCACAUGCGCAUAGGACCGGGAUGACCUAGC", "MS2 coat protein", "apparent Kd", "10.5 nM"),
    ("AUUCAUGGAAACAUGACAUACAUAACCGGUCGAGGACCGGUACGGCCGCCACUCGUUUGGAGGCACAUGAGGAUCACCCAUGUUA", "MS2 coat protein", "apparent Kd", "24.5 nM"),
    ("AGCGCGGUGAUGGUAGCCGGACGCUAGGUACGAGGACCGGUACGGCCGCCACUCGGAGUCCUACGACAUGAGGAUCACCCAUGUA", "MS2 coat protein", "apparent Kd", "46.8 nM"),
    ("UAAUGCAGGUCGGCCGCCACUACAAACAUGAGGAUCACCCAUGUAGUUACUGGGUGAAGUGGCAGUAGGACCGGGACCUGCAUAA", "MS2 coat protein", "apparent Kd", "342 nM"),
    ("GGCACAUAGUCGGCCGCCACUACUAACACCUCAGACAACAUGAGGAUCACCCAUGUUCCAGAGUGUAGGACCGGGACUAUGUGCC", "MS2 coat protein", "apparent Kd", "10.5 nM"),
    ("ACGUUGUAGUCGGCCGCCACUGUUUUCAUGUUCAACAUGAGGAUCACCCAUGUACCUUUUUUUAUCAGGACCGGGACGUAUUCGA", "MS2 coat protein", "apparent Kd", "40.7 nM"),
    ("UAACAUGAGGAUCACCCAUGUUUGAAGGAACGAGGACCGGUACGGCCGCCACUCGACGAGUGGAUGAGAAGUGGGAUAGUGUGCU", "MS2 coat protein", "apparent Kd", "13.8 nM"),
    ("UGGGUCGGAUGAGUAAAUUGUCGGACUCAUCGAGGACCGGUACGGCCGCCACUCGGUUGUACAUGAGGAUCACCCAUGUCAGGGU", "MS2 coat protein", "apparent Kd", "223 nM"),
]

Input line: GET /values?readout=apparent Kd&item= `GACGCAUGAGUUGUAAAAGCUCAUGGGUCGCGAGGACCGGUACGGCCGCCACUCGGCUGUACAUGAGGAUCACCCAUGUCAGGGU`
Output line: 580 nM

* * *

tested on: MS2 coat protein; test: apparent Kd, MS2 coat protein; higher = weaker binding; RNA-MaP array; conditions: designed as: OFF switch for flavin mononucleotide; no ligand
value-kind: apparent Kd (nM)
One number for each entry, in nM.

Some solved cases for reference:
# residue-string, scale-unit, apparent Kd
records = [
    ("CAGGGAAGAUGAGGAUAUCAUAGGAGGAUAUGUCGACACAUGAGGAUCACCCAUGUCGCUUACGUUGAGAAGGCAUUGACGUGU", "nM", 13.2),
    ("UCAAGGUCAGGAUAUUUAUACAGUCGAUUACGAGGAUGUCGAAAGAAGGGACAUGAGGAUCACCCAUGUGGUAC", "nM", 43),
]

For each listed entry, give its apparent Kd.
1. GCUCUGUCAGGAUAUAGGACGGCAACAGGCAAACUAAGCAACUAGAAGGGACAUGAGGAUCACCCAUGUAGCGC
2. GUAGGUUGCCAAGGAUAUGCGGGUACUCUUCCGAAACAUGAGGAUCACCCAUGUACUCUCCUGUAGCAGAAGGUGGCUUGGUGA

Output line:
1. 9.33
2. 493

Input line: What does the record list as apparent Kd for `GUUUCCUCAGGAUAUUACUGCCGGGACAUGAGGAUCACCCAUGUGGCCUCCGUAAGGCUAUAAGAAGGGAGGCGUC` ?
Output line: 111
